# System: T1, BsGpsB1-68 (B. subtilis, UniProt P0CI74 1-68)
# T1 construct: GpsB, Bacillus subtilis, residues 1-68 (N-terminal domain); also called N-terminal domain of B. subtilis GpsB; wildtype BsGpsB1-68; source: E. coli BL21(DE3), purified (Ni-NTA, thrombin removal of the His6-tag, SEC); not shown: His6, N-terminal, cleaved
# T1 sequence (looked up): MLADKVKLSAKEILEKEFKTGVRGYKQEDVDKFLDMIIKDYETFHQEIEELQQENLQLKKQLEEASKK
# Assay Comment: fluorescence polarisation; GpsB protein titrated into TAMRA- or fluorescein-labelled peptide; 10 mM Tris.HCl pH 8.0, 250 mM NaCl, 0.1% reduced Triton X-100; all data fitted to a 1:1 interaction model, Kd ± standard error
# Condition Description: both partners purified
pKd: −log10 of the molar value. No end group written: not given here.
Reported Property: pKd

Solved entries:
-- ask Answer with the recorded pKd for the binder listed here: GSMADQFNSAEARRKANSKSSPSPKKGKKRKKC(fluorescein‑maleimide)G (non-native N-terminal residues left by the recombinant method; PBP1 (ponA), Bacillus subtilis, residues 1-32; also called 31-labelled BsPBP1 1-32 R8A) [Fluorescein-BsPBP11-32 Arg8Ala]
-- reply < 3.30

-- ask Answer with the recorded pKd for the binder listed here: GSMADQFNAREARRKANC(TAMRA‑maleimide)KSSPSPKKGKKRKKGG (non-native N-terminal residues left by the recombinant method; PBP1 (ponA), Bacillus subtilis, residues 1-32; also called BsPBP1 1-32 S7A) [TAMRA-BsPBP11-32 Ser7Ala]
-- reply < 3.15

-- ask Answer with the recorded pKd for the binder listed here: GSMADQFNSREPRRKANC(TAMRA‑maleimide)KSSPSPKKGKKRKKGG (non-native N-terminal residues left by the recombinant method; PBP1 (ponA), Bacillus subtilis, residues 1-32; also called BsPBP1 1-32 A10P) [TAMRA-BsPBP11-32 Ala10Pro]
-- reply < 3.00

Further cases:
-- ask Answer with the recorded pKd for the binder listed here: GSMADQFNSKEARRKANC(TAMRA‑maleimide)KSSPSPKKGKKRKKGG (non-native N-terminal residues left by the recombinant method; PBP1 (ponA), Bacillus subtilis, residues 1-32; also called BsPBP1 1-32 R8K) [TAMRA-BsPBP11-32 Arg8Lys]
-- reply < 2.70
